Recorded DC50 by entry
# assay target: IKZF1 (Homo sapiens, UniProt Q13422+Q96SW2)
# Construct: expressed in transfected cells
# Sequence (Q13422 whole entry): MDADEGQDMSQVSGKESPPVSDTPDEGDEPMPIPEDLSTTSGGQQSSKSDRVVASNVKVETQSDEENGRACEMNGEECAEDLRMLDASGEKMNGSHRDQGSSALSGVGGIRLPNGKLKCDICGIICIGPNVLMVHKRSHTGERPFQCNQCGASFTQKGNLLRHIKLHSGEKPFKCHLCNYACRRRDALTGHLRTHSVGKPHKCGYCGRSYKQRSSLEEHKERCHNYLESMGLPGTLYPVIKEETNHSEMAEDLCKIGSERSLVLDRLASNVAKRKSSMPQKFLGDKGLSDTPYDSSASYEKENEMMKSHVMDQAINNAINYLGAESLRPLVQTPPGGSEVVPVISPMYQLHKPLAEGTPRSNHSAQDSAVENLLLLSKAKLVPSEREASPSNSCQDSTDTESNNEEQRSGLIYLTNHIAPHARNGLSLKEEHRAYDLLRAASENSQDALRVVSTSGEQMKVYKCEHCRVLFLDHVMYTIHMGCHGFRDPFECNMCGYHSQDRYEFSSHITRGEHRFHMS
# Sequence (Q96SW2 whole entry): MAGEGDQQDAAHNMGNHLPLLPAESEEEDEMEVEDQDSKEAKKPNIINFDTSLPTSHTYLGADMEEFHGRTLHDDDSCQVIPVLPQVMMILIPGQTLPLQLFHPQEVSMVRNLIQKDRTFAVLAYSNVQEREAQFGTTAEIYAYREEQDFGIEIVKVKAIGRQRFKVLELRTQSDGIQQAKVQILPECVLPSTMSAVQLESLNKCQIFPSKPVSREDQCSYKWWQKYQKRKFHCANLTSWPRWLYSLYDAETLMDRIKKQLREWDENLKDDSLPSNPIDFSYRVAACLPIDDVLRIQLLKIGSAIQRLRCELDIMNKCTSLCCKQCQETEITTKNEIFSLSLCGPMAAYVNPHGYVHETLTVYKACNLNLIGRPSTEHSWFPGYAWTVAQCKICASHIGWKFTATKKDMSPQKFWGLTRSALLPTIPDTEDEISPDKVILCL
# Sequence (Q16531 whole entry partner): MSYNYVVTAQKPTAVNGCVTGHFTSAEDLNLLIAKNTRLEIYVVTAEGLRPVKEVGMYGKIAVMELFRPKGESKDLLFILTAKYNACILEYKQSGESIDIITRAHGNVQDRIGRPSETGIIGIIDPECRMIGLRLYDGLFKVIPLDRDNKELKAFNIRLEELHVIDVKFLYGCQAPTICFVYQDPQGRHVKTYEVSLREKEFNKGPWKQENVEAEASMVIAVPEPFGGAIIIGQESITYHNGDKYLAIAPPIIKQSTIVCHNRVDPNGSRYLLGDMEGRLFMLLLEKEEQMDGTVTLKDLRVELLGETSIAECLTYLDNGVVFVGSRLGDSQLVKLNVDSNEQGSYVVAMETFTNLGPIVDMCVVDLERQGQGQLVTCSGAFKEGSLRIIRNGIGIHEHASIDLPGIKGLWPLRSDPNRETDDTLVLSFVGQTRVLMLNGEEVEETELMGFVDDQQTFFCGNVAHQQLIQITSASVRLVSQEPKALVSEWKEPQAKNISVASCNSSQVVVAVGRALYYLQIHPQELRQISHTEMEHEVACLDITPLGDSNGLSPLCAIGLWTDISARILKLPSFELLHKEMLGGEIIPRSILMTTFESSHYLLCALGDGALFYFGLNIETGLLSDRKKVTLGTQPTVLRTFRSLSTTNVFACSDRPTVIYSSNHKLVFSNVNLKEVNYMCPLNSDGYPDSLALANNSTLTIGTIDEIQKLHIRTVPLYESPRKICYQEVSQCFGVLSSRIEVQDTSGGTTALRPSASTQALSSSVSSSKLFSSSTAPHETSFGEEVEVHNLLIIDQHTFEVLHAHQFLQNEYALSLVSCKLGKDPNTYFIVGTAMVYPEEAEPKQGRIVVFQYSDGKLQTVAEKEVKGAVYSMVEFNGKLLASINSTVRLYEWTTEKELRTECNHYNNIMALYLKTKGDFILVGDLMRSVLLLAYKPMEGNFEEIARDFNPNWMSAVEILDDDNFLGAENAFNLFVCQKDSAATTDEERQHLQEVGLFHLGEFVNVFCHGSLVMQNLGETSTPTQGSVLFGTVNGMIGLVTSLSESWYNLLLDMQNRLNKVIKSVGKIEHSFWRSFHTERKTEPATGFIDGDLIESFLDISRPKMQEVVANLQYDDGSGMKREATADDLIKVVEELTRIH
# assay overview: HEK293 HiBiT in vitro degradation of IKZF1
# Type: cell-based
# run conditions: HEK293 HiBiT, 18-24 hr incubation, normalized to DMSO control; read-out: IKZF1 EC50

Examples from the recorded data:
compound="CC(N[C@H]1CCCC[C@@H]1Cc1ccc2c(c1)CN(C1CCC(=O)NC1=O)C2=O)C1(C)CC1 (stereo partly drawn) [Example 234]" assay_metric=DC50 assay_result="> 1000 nM"
compound="O=C1CC[C@@H](N2Cc3c(ccc(C[C@H]4OCCC[C@@H]4NC4CCCCC4)c3F)C2=O)C(=O)N1 (single isomer, unassigned)" assay_metric=DC50 assay_result="> 1000 nM"

Exam item: What value of measured DC50 is listed for CCCC(CCC)N[C@H]1CCCC[C@@H]1Cc1ccc2c(c1)CN(C1CCC(=O)NC1=O)C2=O (stereo partly drawn) ?
Marked response: > 1000 nM
